- measured.target: estrogen receptor (Homo sapiens)
- protocol.details: In vitro estrogen receptor binding assay (competition with [3H]-17β-estradiol)
- Parameters: expressed in transfected cells; host or cells: CHO cells (ribosome-free cytosol)
- condition.context: relative to 17β-estradiol=100; cytosol of CHO cells overexpressing the estrogen receptor
measurement.type: Estrogen Receptor Affinity (reported as RBA: 17β-estradiol=100)
The answer should be written as a number, with no unit following it.

Cc1c(-c2ccc(O)cc2)n(Cc2ccc(C#CCN3CCCCC3)cc2)c2ccc(O)cc12 [Example 22]; 23
Cc1c(-c2ccc(O)cc2)n(Cc2ccc(/C=C/C(=O)N(C)C)cc2)c2ccc(O)cc12 [Example 10]; 20

Need Estrogen Receptor Affinity (reported as RBA: 17β-estradiol=100), item CNC(=O)/C=C/c1ccc(Cn2c(-c3ccc(O)cc3)c(C)c3cc(O)ccc32)cc1 [Example 15]
53

Need Estrogen Receptor Affinity (reported as RBA: 17β-estradiol=100) of CCCCN(CCCC)C(=O)/C=C/c1ccc(Cn2c(-c3ccc(O)cc3)c(C)c3cc(O)ccc32)cc1 [Example 11] , thanks.
80

Looking for the measured Estrogen Receptor Affinity (reported as RBA: 17β-estradiol=100) of CCN(CC)C(=O)/C=C/c1ccc(Cn2c(-c3ccc(O)cc3)c(C)c3cc(O)ccc32)cc1 [Example 7] , can you help?
42

I'd like to know its Estrogen Receptor Affinity (reported as RBA: 17β-estradiol=100). The compound in question is Cc1c(-c2ccc(O)cc2)n(Cc2ccc(C#CCN(C)C)cc2)c2ccc(O)cc12 [Example 21]
53

Entry Cc1c(-c2ccc(O)cc2)n(Cc2ccc(/C=C/C(=O)NC(C)(C)C)cc2)c2ccc(O)cc12 [Example 8] has what Estrogen Receptor Affinity (reported as RBA: 17β-estradiol=100)?
40

# get_value(readout='Estrogen Receptor Affinity (reported as RBA: 17β-estradiol=100)', item= Cc1c(-c2ccc(O)cc2)n(Cc2ccc(/C=C/C(N)=O)cc2)c2ccc(O)cc12 [Example 14] )
32

Find the recorded Estrogen Receptor Affinity (reported as RBA: 17β-estradiol=100) belonging to CCCCN(C)C(=O)/C=C/c1ccc(Cn2c(-c3ccc(O)cc3)c(C)c3cc(O)ccc32)cc1 [Example 12] and report it.
114

====

- measured.target: estrogen receptor (Homo sapiens, UniProt P03372)
- protocol.details: 2X VIT ERE Transfection Assay (Infection Luciferase Assay)
- Format: cell-based
- condition.context: compound alone (1 uM), 24 h, compared to 17β-estradiol
Entries and their measured % Activation follow.
Report the figure along with its unit, number first.

# example entries with known answers
Cc1c(-c2ccc(O)cc2)n(Cc2ccc(C#CCN3CCCCC3)cc2)c2ccc(O)cc12; 17%
Cc1c(-c2ccc(O)cc2)n(Cc2ccc(C#CCN(C)C)cc2)c2ccc(O)cc12; 34%
CNC(=O)/C=C/c1ccc(Cn2c(-c3ccc(O)cc3)c(C)c3cc(O)ccc32)cc1; 15%

Param readout = % Activation; param system = estrogen receptor (Homo sapiens, UniProt P03372); param query = Cc1c(-c2ccc(O)cc2)n(Cc2ccc(/C=C/C(=O)NC(C)(C)C)cc2)c2ccc(O)cc12 ; response: value
6%

====

- measured.target: estrogen receptor (Homo sapiens)
- Sequence (P03372 1-595): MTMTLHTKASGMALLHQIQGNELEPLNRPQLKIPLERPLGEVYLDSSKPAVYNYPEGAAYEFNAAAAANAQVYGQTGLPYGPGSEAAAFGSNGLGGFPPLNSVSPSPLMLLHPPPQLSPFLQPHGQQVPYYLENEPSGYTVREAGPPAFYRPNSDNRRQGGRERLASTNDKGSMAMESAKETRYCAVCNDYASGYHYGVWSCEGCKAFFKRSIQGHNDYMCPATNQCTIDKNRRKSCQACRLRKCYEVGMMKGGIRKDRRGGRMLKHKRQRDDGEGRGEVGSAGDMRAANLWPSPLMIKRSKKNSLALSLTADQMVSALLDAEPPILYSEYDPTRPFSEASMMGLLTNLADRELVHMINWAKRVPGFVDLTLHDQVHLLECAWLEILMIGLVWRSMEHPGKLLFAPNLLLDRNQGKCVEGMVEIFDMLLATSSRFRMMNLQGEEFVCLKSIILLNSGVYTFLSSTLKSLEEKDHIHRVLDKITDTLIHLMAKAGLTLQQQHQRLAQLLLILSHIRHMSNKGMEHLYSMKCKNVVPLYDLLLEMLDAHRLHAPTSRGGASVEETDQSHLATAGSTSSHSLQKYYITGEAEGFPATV
- protocol.details: 2X VIT ERE Transfection Assay (Infection Luciferase Assay)
- Format: cell-based
- condition.context: compound alone (1 uM), 24 h, compared to 17β-estradiol
The entries below come with measured % Activation values attached.
Record the value in %, omitting the unit from your answer.

Field: example entries. Status: answers known.
Cc1c(-c2ccc(O)cc2)n(Cc2ccc(/C=C/C(N)=O)cc2)c2ccc(O)cc12; 19
Cc1c(-c2ccc(O)cc2)n(Cc2ccc(/C=C/C(=O)N3CCOCC3)cc2)c2ccc(O)cc12; 8

We now examine a further compound.
So what's the measured % Activation for this one? CCCCN(CCCC)C(=O)/C=C/c1ccc(Cn2c(-c3ccc(O)cc3)c(C)c3cc(O)ccc32)cc1
8

====

- measured.target: estrogen receptor (Homo sapiens)
- protocol.details: 2X VIT ERE Transfection Assay (Infection Luciferase Assay)
- Type: cell-based
- condition.context: compound alone (1 uM), 24 h, compared to 17β-estradiol
measurement.type: % Activation

Use these answered entries as a reference point.
CCN(CC)C(=O)/C=C/c1ccc(Cn2c(-c3ccc(O)cc3)c(C)c3cc(O)ccc32)cc1; 4%
CCCCN(C)C(=O)/C=C/c1ccc(Cn2c(-c3ccc(O)cc3)c(C)c3cc(O)ccc32)cc1; 13%
Cc1c(-c2ccc(O)cc2)n(Cc2ccc(/C=C/C(=O)N(C)C)cc2)c2ccc(O)cc12; 1%

Shifting focus to the molecule that follows.
What value of measured % Activation is listed for Cc1c(-c2ccc(O)cc2)n(Cc2ccc(/C=C/C(=O)N3CCCC3)cc2)c2ccc(O)cc12 ?
6%

====

- measured.target: estrogen receptor (Homo sapiens, UniProt P03372)
- protocol.details: 2X VIT ERE Transfection Assay (Infection Luciferase Assay)
- Type: cell-based
- condition.context: 1 uM compound + 1 nM 17β-estradiol (test for estrogen antagonism), 24 h
measurement.type: % Activation with 1 nM 17β-estradiol (%)
The reply should contain only the number, in %.

Known % Activation with 1 nM 17β-estradiol results, listed for orientation:
Cc1c(-c2ccc(O)cc2)n(Cc2ccc(C#CCN3CCCCC3)cc2)c2ccc(O)cc12 [Example 22]; 19
Cc1c(-c2ccc(O)cc2)n(Cc2ccc(/C=C/C(=O)NC(C)(C)C)cc2)c2ccc(O)cc12 [Example 8]; 78
CCCCN(CCCC)C(=O)/C=C/c1ccc(Cn2c(-c3ccc(O)cc3)c(C)c3cc(O)ccc32)cc1 [Example 11]; 12
Cc1c(-c2ccc(O)cc2)n(Cc2ccc(/C=C/C(N)=O)cc2)c2ccc(O)cc12 [Example 14]; 57
Cc1c(-c2ccc(O)cc2)n(Cc2ccc(/C=C/C(=O)N3CCCC3)cc2)c2ccc(O)cc12 [Example 9]; 8

Request body: readout % Activation with 1 nM 17β-estradiol, system estrogen receptor (Homo sapiens, UniProt P03372), query Cc1c(-c2ccc(O)cc2)n(Cc2ccc(/C=C/C(=O)N(C)C)cc2)c2ccc(O)cc12 [Example 10] . Return the value.
2

Test system estrogen receptor (Homo sapiens, UniProt P03372); read-out % Activation with 1 nM 17β-estradiol; what value for Cc1c(-c2ccc(O)cc2)n(Cc2ccc(C#CCN(C)C)cc2)c2ccc(O)cc12 [Example 21] ?
34

Report % Activation with 1 nM 17β-estradiol for CCCCN(C)C(=O)/C=C/c1ccc(Cn2c(-c3ccc(O)cc3)c(C)c3cc(O)ccc32)cc1 [Example 12] tested on estrogen receptor (Homo sapiens, UniProt P03372).
24

====

- measured.target: estrogen receptor (Homo sapiens, UniProt P03372)
- protocol.details: 2X VIT ERE Transfection Assay (Infection Luciferase Assay)
- Type: cell-based
- condition.context: 1 uM compound + 1 nM 17β-estradiol (test for estrogen antagonism), 24 h
measurement.type: % Activation with 1 nM 17β-estradiol
Answer format: number, then unit.

Solved entries:
CNC(=O)/C=C/c1ccc(Cn2c(-c3ccc(O)cc3)c(C)c3cc(O)ccc32)cc1 [Example 15]; 31%
Cc1c(-c2ccc(O)cc2)n(Cc2ccc(/C=C/C(=O)N3CCOCC3)cc2)c2ccc(O)cc12 [Example 13]; 17%

Value lookup for % Activation with 1 nM 17β-estradiol; key = CCN(CC)C(=O)/C=C/c1ccc(Cn2c(-c3ccc(O)cc3)c(C)c3cc(O)ccc32)cc1 [Example 7]
8%

FYI, the data here is from patent EP0802184B1.
